// cross-study collection: pIC50 for Receptor-type tyrosine-protein kinase FLT3 (Homo sapiens, UniProt P36888)
pIC50: −log10 of the molar value.

Structure as smiles	pIC50
COC[C@H](C)Nc1ncc2c(-c3ccnc(OC4CCNCC4)c3)cc([C@H]3CC[C@H](O)CC3)n2n1	6.00 to 7.00
C[C@H](CF)Nc1ncc2c(OC3CCOCC3)ncc([C@H]3CC[C@H](O)CC3)c2n1	5.00 to 6.00
Cc1ccc(Nc2ccc(C(=O)c3c[nH]c4ncnc(C5CC5)c34)c(F)n2)cn1	> 7.00
COC[C@H](C)Nc1ncc2c(-c3ccnc(N4CCN(S(=O)(=O)C5CC5)CC4)c3)cc([C@H]3CC[C@H](O)CC3)n2n1	6.00 to 7.00
CCc1nc2c(N)ncc(-c3ccc(N4C[C@H](C)O[C@@H](C)C4)c(OC)c3)c2nc1N[C@@H]1CC[C@H](O)C1	≥ 8.00
O=c1[nH]c2ccsc2c(NC2CCNCC2)c1-c1nc2ccc(N3CCOCC3)cc2[nH]1	≥ 7.30

In the following, a different molecule is considered.
IN: # input molecule: CCc1nc2c(N)ncc(-c3cnn(C4CCN(CC5CCN(C)CC5)CC4)c3)c2nc1NC1CCOCC1 ; wanted: its pIC50
OUT: ≥ 8.00

====

// cross-study collection: IC50 for Receptor-type tyrosine-protein kinase FLT3 (Homo sapiens, UniProt P36888)

Structure as smiles	Measured target	IC50
CCOc1ccc(Nc2ccc(C(=O)c3c[nH]c4ncc(C)cc34)c(F)n2)cn1	Receptor-type tyrosine-protein kinase FLT3 (Homo sapiens, UniProt P36888)	< 100 nM
CCc1nc2c(N)ncc(-c3cnn(C4CCN(CC(C)C)CC4)c3)c2nc1N[C@@H]1CC[C@H](O)C1	Receptor-type tyrosine-protein kinase FLT3 (Homo sapiens, UniProt P36888)	≤ 10 nM
CC(C)(C)c1cc(NC(=O)Nc2ccc(-c3cn4c(n3)sc3nc(NCCN5C[C@@H]6C[C@H]5CO6)ccc34)cc2)no1	Receptor-type tyrosine-protein kinase FLT3 (Homo sapiens, UniProt P36888)	28 nM

Required: IC50, one value per compound below.
1. COC[C@H](C)Nc1ncc2c(OC3CCOCC3)ncc([C@H]3CC[C@](O)(C(F)(F)F)CC3)c2n1
2. COC[C@H](C)Nc1ncc2c(-c3cnn(C(C)(C)C(=O)N4CCS(=O)(=O)CC4)c3)cc([C@H]3CC[C@H](O)CC3)n2n1
3. COC[C@H](C)Nc1ncc2c(O[C@H]3CCN(C)C(C)(C)C3)ncc([C@H]3CC[C@H](O)CC3)c2n1
4. COC[C@H](C)Nc1ncc2c(OC3CCOCC3)ncc([C@H]3CC[C@](C)(O)CC3)c2n1

OUT:
1. 1000 to 10000 nM
2. 100 to 1000 nM
3. 1000 to 10000 nM
4. 1000 to 10000 nM

Required: IC50, one value per compound below.
1. COC[C@H](C)Nc1ncc2c(OC3CCOCC3)ncc(C3=CCC4(CC3)OCCO4)c2n1
2. COC[C@H](C)Nc1ncc2c(-c3cnn(C(C)(C)c4nnc(C(F)(F)F)o4)c3)cc([C@H]3CC[C@H](O)CC3)n2n1
3. CCc1nc2c(N)ncc(-c3cnn(-c4ccc(C(F)F)nc4)c3)c2nc1N[C@@H]1CC[C@H](O)C1
4. O=C1NCCCNc2ccn3ncc(c3n2)-c2cccc(c2)N1
5. Cn1cc(-c2cc(Oc3ccc(NC(=O)N4CCC5(CC(F)(F)C5)C4=O)nc3)ccn2)cn1

OUT:
1. 1000 to 10000 nM
2. 1000 to 10000 nM
3. ≤ 10 nM
4. < 100 nM
5. > 10000 nM

Required: IC50, one value per compound below.
1. COC[C@H](C)Nc1ncc2c(C3=CCN(C(=O)OC(C)(C)C)CC3)cc([C@H]3CC[C@H](O)CC3)n2n1
2. COC[C@H](C)Nc1ncc2c([C@@H]3CCN(S(C)(=O)=O)C3)cc([C@H]3CC[C@H](O)CC3)n2n1
3. CN1CCN(c2ccc3nc(-c4c(N[C@@H]5CCOC5)c5ccsc5[nH]c4=O)[nH]c3c2)CC1
4. C[C@@H](CC(F)(F)F)Nc1ncc2c(O[C@H]3C[C@@H](O)C3)ncc([C@H]3CC[C@](C)(O)CC3)c2n1
5. COCC[C@H](C)Nc1ncc2c(OC3CCOCC3)ncc([C@H]3CC[C@H](O)CC3)c2n1
6. CCc1nc2c(N)ncc(-c3ccc(N4CCC(N5CCN(C)CC5)CC4)c(F)c3)c2nc1NC1CCOCC1

OUT:
["100 to 1000 nM", "1000 to 10000 nM", "≤ 50 nM", "100 to 1000 nM", "1000 to 10000 nM", "≤ 10 nM"]

Required: IC50, one value per compound below.
1. CC(C)Nc1ncc2c(OC3CCOCC3)ncc(-c3cccc(S(=O)(=O)N(C)C)c3)c2n1
2. CC(C)N1CCN(Cc2cc(NC(=O)Nc3ccc(Oc4cc(N)ncn4)cc3)cc(C(F)(F)F)c2)CC1
3. CCc1nc2c(N)ncc(-c3cnn(-c4ccc(F)cc4F)c3)c2nc1N[C@@H]1CC[C@H](O)C1
4. CCC[C@H](C)Nc1ncc2c(OC3CCN(C)CC3)ncc([C@H]3CC[C@H](O)CC3)c2n1
5. COC[C@H](C)Nc1ncc2c(-c3cnn(C4COC4)c3)cc(C3CCOCC3)n2n1
6. Clc1ccc(Nc2n[nH]c3c2Cc2sccc2-3)cc1Cl

OUT:
100 to 1000 nM
510 nM
≤ 10 nM
1000 to 10000 nM
1000 to 10000 nM
100 to 499 nM
